CONDITIONS: in isopropanol, 288.15 K
READOUT_LABEL: solubility (mole fraction)
I'd appreciate a reply containing only the number, no unit.

// lookup solubility (mole fraction) for c1ccc2[nH]c(-c3cscn3)nc2c1 0.000785

====

CONDITIONS: in methanol, 323.15 K
READOUT_LABEL: solubility (mole fraction)
Write the value as a bare number.

Could you tell me which solubility (mole fraction) is on file for c1ccc2[nH]c(-c3cscn3)nc2c1 ? 0.00297

====

CONDITIONS: in acetonitrile, 313.15 K
READOUT_LABEL: solubility (mole fraction)
Please reply with the number alone, leaving off any unit.

So what's the measured solubility (mole fraction) for this one? c1ccc2[nH]c(-c3cscn3)nc2c1 0.0003
